# IC50 per entry for Mineralocorticoid receptor (Homo sapiens)

// fetch Mineralocorticoid receptor (Homo sapiens) IC50 for COc1cc(CNC(=O)[C@@]2(Cc3cccc4nonc34)OC(=O)N([C@H](C)c3ccccc3)C2=O)cc(OC)c1
> 40 µM

Repeat for the following compound: C[C@H](c1ccccc1)N1C(=O)O[C@](Cc2ccccc2)(C(=O)NCc2ccncc2)C1=O
> 40 µM

Also, C[C@H](c1ccccc1)N1C(=O)O[C@](Cc2ccccc2)(C(=O)Nc2ccc(C#N)cc2)C1=O please.
0.1 µM

Next compound: COc1cc(CNC(=O)[C@@]2(Cc3ccccc3)OC(=O)N([C@@H]3CCc4ccccc43)C2=O)cc(OC)c1
0.033 µM

// same read-out, input: C[C@H](c1ccccc1)N1C(=O)O[C@](Cc2ccccc2)(C(=O)NCc2ccccn2)C1=O
16 µM

Now try C[C@H](c1ccccc1)N1C(=O)O[C@](Cc2ccccc2)(C(=O)N[C@H](C)c2cccc(Cl)c2)C1=O .
0.4 µM

Repeat with COc1cc(CNC(=O)[C@@]2(Cc3ccccc3)OC(=O)N(C(C)C)C2=O)cc(OC)c1
0.5 µM

One more compound: COc1cc(CNC(=O)[C@@]2(Cc3ccccc3)OC(=O)N([C@H](C)C3CCCCC3)C2=O)cc(OC)c1
0.014 µM

Let us now turn to C[C@H](c1ccccc1)N1C(=O)O[C@](Cc2ccccc2)(C(=O)NCCc2cn[nH]c2)C1=O
> 40 µM

What do you get for COc1cc(CNC(=O)[C@H]2OC(=O)N(Cc3ccccc3)C2=O)cc(OC)c1 ?
> 40 µM

Please answer likewise for C[C@H](c1ccccc1)N1C(=O)O[C@](Cc2ccccc2)(C(=O)NCc2ccc(C(F)(F)F)cc2)C1=O
0.57 µM

* * *

# experiment: Cmax in rat at 1 mg/kg, iv and 1 mg/lg, po
# Assay type: ADME, organism-based
# Design: dose 1 mg/kg, route oral
# assay-context: in vivo
Assign Cmax to each entry below.
Give just the numeric value; nM need not be written.

Requested read-out: Cmax. Entry: COc1cc(CNC(=O)[C@@]2(Cc3ccccc3)OC(=O)N([C@H](C)c3ccccc3)C2=O)cc(OC)c1
60

// repeat for COc1cc(CNC(=O)[C@@]2(Cc3ccccc3)OC(=O)N([C@@H]3CCc4ccccc43)C2=O)cc(OC)c1 and report
98

And what about the compound C[C@H](c1ccc(F)cc1)N1C(=O)O[C@](Cc2ccc(F)cc2)(C(=O)NCc2ccc(Cl)c(Cl)c2)C1=O ?
120

* * *

Entries below carry reported IC50 on Mineralocorticoid receptor (Homo sapiens, UniProt P08235).
Write the answer as a number in µM, unit excluded.

Looking for the measured IC50 of COc1cc(CNC(=O)[C@@]2(Cc3ccccc3Cl)OC(=O)N([C@H](C)c3ccccc3)C2=O)cc(OC)c1 , can you help?
0.45

Try this molecule too: COc1cc(CNC(=O)[C@@]2(Cc3ccccc3F)OC(=O)N([C@H](C)c3ccccc3)C2=O)cc(OC)c1
0.3

COc1cc(CNC(=O)[C@@]2(Cc3ccccc3)OC(=O)N([C@H](C)c3ccc(F)cc3)C2=O)cc(OC)c1 , same question.
0.037

What about this molecule? COc1cccc(CNC(=O)[C@@]2(Cc3ccccc3)OC(=O)N(Cc3ccccc3)C2=O)c1
1

For C[C@H](c1ccccc1)N1C(=O)O[C@](Cc2ccccc2)(C(=O)Nc2cccc(F)c2)C1=O then?
0.3

* * *

# target-system: Mineralocorticoid receptor (Homo sapiens)
# Sequence (P08235 whole entry): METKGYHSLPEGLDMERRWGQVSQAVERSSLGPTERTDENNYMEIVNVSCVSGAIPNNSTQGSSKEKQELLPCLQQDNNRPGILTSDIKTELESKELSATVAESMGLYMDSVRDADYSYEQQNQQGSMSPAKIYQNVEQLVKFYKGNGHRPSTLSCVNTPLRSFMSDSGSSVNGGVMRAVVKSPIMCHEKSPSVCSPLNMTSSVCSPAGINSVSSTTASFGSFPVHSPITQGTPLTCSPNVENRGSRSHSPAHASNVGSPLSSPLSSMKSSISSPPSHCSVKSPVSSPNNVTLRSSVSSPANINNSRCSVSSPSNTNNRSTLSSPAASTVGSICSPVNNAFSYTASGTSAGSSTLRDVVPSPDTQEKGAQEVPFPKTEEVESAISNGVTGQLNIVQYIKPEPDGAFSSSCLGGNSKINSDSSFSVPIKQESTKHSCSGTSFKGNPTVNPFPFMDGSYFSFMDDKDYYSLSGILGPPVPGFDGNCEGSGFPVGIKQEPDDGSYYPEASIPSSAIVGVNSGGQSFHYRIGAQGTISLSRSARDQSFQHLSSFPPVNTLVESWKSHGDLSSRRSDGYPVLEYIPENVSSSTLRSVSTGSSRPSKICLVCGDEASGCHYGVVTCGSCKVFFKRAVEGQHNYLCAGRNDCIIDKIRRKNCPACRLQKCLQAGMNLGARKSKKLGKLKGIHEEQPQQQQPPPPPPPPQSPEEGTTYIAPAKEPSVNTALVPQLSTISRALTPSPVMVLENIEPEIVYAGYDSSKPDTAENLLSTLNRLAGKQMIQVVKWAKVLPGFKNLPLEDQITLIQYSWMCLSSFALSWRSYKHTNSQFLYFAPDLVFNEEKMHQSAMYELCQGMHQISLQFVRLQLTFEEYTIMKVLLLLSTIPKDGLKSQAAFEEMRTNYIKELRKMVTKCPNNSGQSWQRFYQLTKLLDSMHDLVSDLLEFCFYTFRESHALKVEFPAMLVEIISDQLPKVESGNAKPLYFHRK
So I've got a bunch of compounds here, and I need their IC50 values.
Your answer should be a plain number; it is taken to be in µM.

Hello, I am looking for reported IC50 with Mineralocorticoid receptor (Homo sapiens) for COc1cc(CNC(=O)[C@@]2(Cc3ccccc3)OC(=O)N([C@H](C)c3ccc(Cl)cc3)C2=O)cc(OC)c1 . Could you help?
0.055

Can you check COc1cc(CNC(=O)[C@@]2(Cc3ccccc3)OC(=O)N(C3CCCc4ccccc43)C2=O)cc(OC)c1 (some centres undefined) next?
0.17

* * *

# target-system: Mineralocorticoid receptor (Homo sapiens)
# experiment: Antagonist activity at human mineralocorticoid receptor assessed as inhibition of binding to coactivator peptide by NH Pro assay
experimental-readout: IC50 (nM)
Numeric only. Scale: nM

IC50 for Cc1cc(CNC(=O)[C@@]2(Cc3ccccc3)OC(=O)N([C@H](C)c3ccccc3)C2=O)on1 ?
3000

How about this compound: C[C@H](c1ccccc1)N1C(=O)O[C@](Cc2ccccc2)(C(=O)NCc2cccc(S(C)(=O)=O)c2)C1=O
3000

Moving on to C[C@H](c1ccccc1)N1C(=O)O[C@](Cc2ccccc2)(C(=O)N[C@H]2C[C@H](c3ccccc3)C2)C1=O
190

Now consider COc1cc(CNC(=O)[C@@]2(Cc3cccc(Cl)c3)OC(=O)N([C@H](C)c3ccccc3)C2=O)cc(OC)c1 and answer again.
750

Note, next up: COc1ccc(CNC(=O)[C@@]2(Cc3ccccc3)OC(=O)N([C@H](C)c3ccccc3)C2=O)cc1
1000

Repeat with C[C@H](c1ccccc1)N1C(=O)O[C@](Cc2ccccc2)(C(=O)NCc2cccc3ccnn23)C1=O
300

How about this compound: C[C@H](c1ccccc1)N1C(=O)O[C@](Cc2ccccc2)(C(=O)Nc2cccc(Cl)c2)C1=O
2000

* * *

# target-system: Androgen receptor (Homo sapiens)
# Sequence (P10275 whole entry): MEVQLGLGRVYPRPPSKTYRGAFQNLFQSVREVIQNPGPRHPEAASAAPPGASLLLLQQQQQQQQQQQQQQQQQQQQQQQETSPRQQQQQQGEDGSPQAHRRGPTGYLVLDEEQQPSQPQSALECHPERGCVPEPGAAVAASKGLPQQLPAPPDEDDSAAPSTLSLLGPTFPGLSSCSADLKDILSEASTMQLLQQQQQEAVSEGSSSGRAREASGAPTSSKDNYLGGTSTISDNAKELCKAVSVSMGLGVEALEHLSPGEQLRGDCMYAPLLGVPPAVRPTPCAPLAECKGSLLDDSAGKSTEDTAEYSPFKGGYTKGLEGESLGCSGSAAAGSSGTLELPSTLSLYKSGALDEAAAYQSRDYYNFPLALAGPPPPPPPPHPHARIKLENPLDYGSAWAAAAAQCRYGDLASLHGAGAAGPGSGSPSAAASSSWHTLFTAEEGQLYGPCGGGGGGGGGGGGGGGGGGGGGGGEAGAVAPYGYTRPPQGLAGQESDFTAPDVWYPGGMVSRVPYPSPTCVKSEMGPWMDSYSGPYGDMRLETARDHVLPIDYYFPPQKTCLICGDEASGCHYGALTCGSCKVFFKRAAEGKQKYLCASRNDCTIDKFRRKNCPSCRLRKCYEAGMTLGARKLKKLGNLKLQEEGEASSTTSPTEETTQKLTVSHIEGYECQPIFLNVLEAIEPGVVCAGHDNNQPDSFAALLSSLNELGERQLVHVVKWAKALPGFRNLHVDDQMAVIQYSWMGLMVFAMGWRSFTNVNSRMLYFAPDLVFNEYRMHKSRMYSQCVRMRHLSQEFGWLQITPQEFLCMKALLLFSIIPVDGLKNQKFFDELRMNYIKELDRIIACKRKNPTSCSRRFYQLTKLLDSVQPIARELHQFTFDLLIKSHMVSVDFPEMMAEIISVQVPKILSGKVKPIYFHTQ
# experiment: Agonist activity at androgen receptor (unknown origin) by NH Pro assay
pEC50: −log10 of the molar value.
Exercise: state measured pEC50 for each of the compounds provided.

Value lookup for pEC50; key = C[C@H](c1ccc(F)cc1)N1C(=O)O[C@](Cc2ccc(F)cc2)(C(=O)NCc2ccc(Cl)c(Cl)c2)C1=O
< 4.70

Next compound up: COc1cc(CNC(=O)[C@@]2(Cc3ccccc3)OC(=O)N([C@@H]3CCc4ccccc43)C2=O)cc(OC)c1
< 4.70
